# credit: patent US20250092134A1

# TGT: HuTCR Vb17 × Va12 (SKW3-2) (human)
# Sequence (A0A075B6N1 22-114): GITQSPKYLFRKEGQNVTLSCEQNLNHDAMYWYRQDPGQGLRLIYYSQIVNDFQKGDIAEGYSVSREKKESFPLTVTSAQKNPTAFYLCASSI
# MEASUREMENT DESCRIPTION: flow cytometry on SKW3-2 cells
MEASURE: MFI (MFI)
Answer format: numeric, MFI implied, no suffix.

# input Give the measured MFI for 28B2A2 (antibody, IgG2a, V domains shown) VH: EVQLQESGPELVKPGASVKMSCKASGYTFTDDNMHWVKQSHGKSLEWIGYINPNNNHTNYNQKFKGKATLTVNKSSSTAYMELRSLTSEDSAVYFCARSTVVPFYAMDYWGQGTSVTVSS VL: DIVMTQSPASLSMAIGEKVTIRCITITDIDDDMNWYQQKPGEPPKLLFSEGNTLRPGVPSRFSSSGYGSDFAFTIENMLSEDVADYYCLQSDNLPLTFGAGTKLELK
# output 36500
